# Study System: T1, CCL4 (human, UniProt P13236 24-92)
# T1 chain: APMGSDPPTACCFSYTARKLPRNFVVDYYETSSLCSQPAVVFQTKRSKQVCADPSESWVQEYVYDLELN
# Experiment Notes: BLI

Binder | Kd
P467_RHIPU (other) AEKSLDSDSSGEDYELWTQGCPFLVAENRTGFGTTVSCQHNCNGAIEKVPEGEPCYTIGEDGLGRMKLNLPYNCSLGECSGGVCVPNGRSDVCFKRTWEENNKAMA | 13.6 nM
P991_AMBCA (other) ENGEGTTQPDYDNSTDYYNYEDFKCTCPAPHLNNTNGTVMKPIGCYYTCNVTRCTAPDTYPCYNLTEHQAKNLTTSPTTLCAVGNCDHGICVPNGTKELCFKAPNLEE | 5.82 nM
P1243_AMBAM (other) RNHTEDNSTEYYDYEEARCACPARHLNNTNGTVLKLLGCHYFCNGTLCTAPDGYPCYNLTAQQVRTLTTYPNTSCAVGVCMKGTCVKNGTMEQCFKTP | 15.3 nM
P985_AMBPA (other) DEESEELGASTDVDYEELDANCTCPAPALTSTRNNKHYPLGCIYNCSSYNCTIPDGTPCYVLTLGEVKEHLQIGSTVPNCTCGLCRNGTCVSNGTVEECFAVEEIEET | 7.47 nM
P983_AMBCA (other) EDTGTEDDFDYGNTGCPFPVLGNYKSNMTKPVGCKNKCGSGYEVLNDTTPCYVIDQKVFNNMVPLRQYSKCPLGFCENGECKPNDQAEDCYKGREEQK | 8.03 nM
P974_AMBCA (other) ENTQQEEQDYDYGTDTCPFPVLANKTNKAKFVGCHQKCNGGDQKLTDGTACYVVERKVWDRMTPMLWYECPLGECKNGVCEDLRKKEDCRKGNGEEK | 30.2 nM
P1181_AMBMA (other) EEREDDNDYGGGCPFVVLGNGTHAKPAGCSHLCNGAPETLDNIECYNVTEEVAKRMTPDIPYTCWLGWCSKGECKRDNRTEVCYRGSERE | 53 nM
